- Target entity: Recombinant human MASP2 enzyme (fragment corresponding to amino acids 297-686, C-terminal His Tag) (human, UniProt O00187 297-686)
- Sequence (O00187 other isoform, or with tags, fused parts or gaps limits assumed): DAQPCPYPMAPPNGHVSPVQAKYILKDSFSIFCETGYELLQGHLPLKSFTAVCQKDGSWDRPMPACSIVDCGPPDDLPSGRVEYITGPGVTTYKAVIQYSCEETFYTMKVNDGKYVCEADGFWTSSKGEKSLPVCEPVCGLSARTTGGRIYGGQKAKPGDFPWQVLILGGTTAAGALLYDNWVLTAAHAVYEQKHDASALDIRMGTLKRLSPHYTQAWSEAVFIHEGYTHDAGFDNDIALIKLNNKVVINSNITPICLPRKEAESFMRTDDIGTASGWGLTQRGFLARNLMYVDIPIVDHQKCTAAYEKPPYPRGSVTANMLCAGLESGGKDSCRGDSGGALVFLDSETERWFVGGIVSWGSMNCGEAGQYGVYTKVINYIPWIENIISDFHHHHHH
- Method description: cell-based or functional assay
Bridge positions count the residues as written; N and C are the ends. Square brackets hold non-standard residues; d marks the D form. Ends that are not written are not given here. Oic = O=C(O)[C@@H]1C[C@@H]2CCCC[C@@H]2N1; tBuAla = CC(C)(C)C[C@H](N)C(=O)O; Chg = N[C@H](C(=O)O)C1CCCCC1; Pen = CC(C)(S)[C@H](N)C(=O)O; Sar = CNCC(=O)O
In this section we review reported human MASP2 IC50 values for a set of binders.
Give the quantity in nM, number only.

{"columns": ["Binder", "Unit symbol", "Measurement"],
 "data": [
  ["[dA]ICSRSLP[Oic]I[Pen]I-NH2 (disulfide 3-11; N-terminus assumed; SMILES CC[C@H](C)[C@H](NC(=O)[C@H]1NC(=O)[C@H]([C@@H](C)CC)NC(=O)[C@@H]2C[C@@H]3CCCC[C@@H]3N2C(=O)[C@@H]2CCCN2C(=O)[C@H](CC(C)C)NC(=O)[C@H](CO)NC(=O)[C@H](CCCNC(=N)N)NC(=O)[C@H](CO)NC(=O)[C@@H](NC(=O)[C@@H](NC(=O)[C@@H](C)N)[C@@H](C)CC)CSSC1(C)C)C(N)=O) [aIC+SRSLP-(Oic)-I-(Pen)+I-NH2]", "nM", 100],
  ["[dA]ICSRSLP[Oic]I[Pen]IPQ-NH2 (disulfide 3-11; N-terminus assumed; SMILES CC[C@H](C)[C@H](NC(=O)[C@@H](C)N)C(=O)N[C@H]1CSSC(C)(C)[C@@H](C(=O)N[C@H](C(=O)N2CCC[C@H]2C(=O)N[C@@H](CCC(N)=O)C(N)=O)[C@@H](C)CC)NC(=O)[C@H]([C@@H](C)CC)NC(=O)[C@@H]2C[C@@H]3CCCC[C@@H]3N2C(=O)[C@@H]2CCCN2C(=O)[C@H](CC(C)C)NC(=O)[C@H](CO)NC(=O)[C@H](CCCNC(=N)N)NC(=O)[C@H](CO)NC1=O) [aIC+SRSLP-(Oic)-I-(Pen)+IPQ-NH2]", "nM", 130],
  ["AICSRSLP[Oic][Chg]CIPD-NH2 (disulfide 3-11; N-terminus assumed; SMILES CC[C@H](C)[C@H](NC(=O)[C@H](C)N)C(=O)N[C@H]1CSSC[C@@H](C(=O)N[C@H](C(=O)N2CCC[C@H]2C(=O)N[C@@H](CC(=O)O)C(N)=O)[C@@H](C)CC)NC(=O)[C@H](C2CCCCC2)NC(=O)[C@@H]2C[C@@H]3CCCC[C@@H]3N2C(=O)[C@@H]2CCCN2C(=O)[C@H](CC(C)C)NC(=O)[C@H](CO)NC(=O)[C@H](CCCNC(=N)N)NC(=O)[C@H](CO)NC1=O) [AIC+SRSLP-(Oic)-(Chg)-C+IPD-NH2]", "nM", 290]
]}

Consider now this further binder.
Request: Let me know recorded human MASP2 IC50 for [Sar]GICSRS[tBuAla]PPI[Pen]IPD-NH2 (disulfide 4-12; N-terminus assumed; SMILES CC[C@H](C)[C@H](NC(=O)CNC(=O)CNC)C(=O)N[C@H]1CSSC(C)(C)[C@@H](C(=O)N[C@H](C(=O)N2CCC[C@H]2C(=O)N[C@@H](CC(=O)O)C(N)=O)[C@@H](C)CC)NC(=O)[C@H]([C@@H](C)CC)NC(=O)[C@@H]2CCCN2C(=O)[C@@H]2CCCN2C(=O)[C@H](CC(C)(C)C)NC(=O)[C@H](CO)NC(=O)[C@H](CCCNC(=N)N)NC(=O)[C@H](CO)NC1=O) [((N-Me)G)-GIC+SRS-((tBu)A)-PPI-(Pen)+IPD-NH2] , thanks.
Result: 170
